- Test system: Vero E6 infected with SARS-CoV-2
- Test description: inhibition of SARS-CoV-2 cytopathic effect; higher = more antiviral protection, active = above 15
- Test context: 8.33 nM; 48 h
Readout: inhibition of SARS-CoV-2 cytopathic effect (%)
Please reply with the bare figure in % and do not write the unit itself.

For orientation, consider the following solved cases.
Compound | Unit of measure | Recorded result
N#Cc1c(N(CC(=O)O)CC(=O)O)sc(C(=O)O)c1CC(=O)O [Strontium Ranelate] | % | 2.01
COc1cc2c(NC3CCN(CC4CCCCC4)CC3)nc(N3CCCN(C(C)C)CC3)nc2cc1OCCCN1CCCCC1 | % | -1.71

Data request: Report measured inhibition of SARS-CoV-2 cytopathic effect on Vero E6 infected with SARS-CoV-2; entry: C/C(=N\NC(=N)N)c1cc(NC(=O)CCCCCCCCC(=O)Nc2cc(/C(C)=N/NC(=N)N)cc(/C(C)=N/NC(=N)N)c2)cc(/C(C)=N/NC(=N)N)c1 [semapimod]
Data returned: 2.42

Data request: Report the value of inhibition of SARS-CoV-2 cytopathic effect obtained on Vero E6 infected with SARS-CoV-2 for CCN(CCO)CCCOc1ccc2c(Nc3cc(CC(=O)Nc4cccc(F)c4)[nH]n3)ncnc2c1 [barasertib-HQPA] .
Data returned: -0.82

Data request: Under Vero E6 infected with SARS-CoV-2, report inhibition of SARS-CoV-2 cytopathic effect for O/N=C/c1cc[n+](COC[n+]2ccc(/C=N/O)cc2)cc1 [obidoxime]
Data returned: -0.64

Data request: Give measured inhibition of SARS-CoV-2 cytopathic effect for CC1(C)S[C@@H]2[C@H](NC(=O)[C@H](C(=O)O)c3ccsc3)C(=O)N2[C@H]1C(=O)O [ticarcillin] (Vero E6 infected with SARS-CoV-2).
Data returned: -1.04

Data request: Write down the reported inhibition of SARS-CoV-2 cytopathic effect (system: Vero E6 infected with SARS-CoV-2) of O=C(Cn1ccnc1[N+](=O)[O-])NCc1ccccc1 [benznidazole]
Data returned: -0.69

Data request: # assay system Vero E6 infected with SARS-CoV-2: give inhibition of SARS-CoV-2 cytopathic effect of O=C(/C=C/c1ccccc1)NC(NC(=S)Nc1cccc2cccnc12)C(Cl)(Cl)Cl (stereo not drawn) [salubrinal]
Data returned: 0.1

---

- System: Vero E6 infected with SARS-CoV-2
- Test description: inhibition of SARS-CoV-2 cytopathic effect; higher = more antiviral protection, active = above 15
- Test context: 833.33 nM; 48 h
Readout: inhibition of SARS-CoV-2 cytopathic effect (%)
Give a bare numeral; the unit % is implied.

The following compounds have reported results that may help.
Compound | Recorded result
CC(C)(S)C(=O)N[C@@H](CS)C(=O)O [bucillamine] | 3.9
CCN(CC)CCCC(C)Nc1ccnc2cc(Cl)ccc12 (stereo not drawn) [chloroquine] | -0.4
C[C@H](Cn1cnc2c(N)ncnc21)OCP(=O)(O)O [tenofovir] | 0.5

Data request: Give me measured inhibition of SARS-CoV-2 cytopathic effect, please, for this compound: CC1(C)O[C@H]2CC(=O)OC[C@]23[C@H]2CC[C@@]4(C)[C@H](c5ccoc5)OC(=O)[C@H]5O[C@]54[C@]2(C)C(=O)C[C@@H]13 [limonin]
Data returned: -1.69

---

- System: Vero E6 infected with SARS-CoV-2
- Test description: morphology score (similarity to uninfected cells); higher = more like uninfected cells
- Test context: 24 h
Known morphology score of a selection of compounds
Reply with the value as a number alone.

Solved entries (count: 3):
Compound | Readout | Recorded result
O=C(Oc1ccccc1C(=O)O)c1ccccc1O [sasapyrine] (10 µM) | morphology score | 0.0337
N#Cc1cc(-c2n[nH]c(-c3ccncc3)n2)ccn1 [topiroxostat] (10 µM) | morphology score | 0.145
CS(=O)(=O)c1cccc(CNc2nc(Nc3ccc4c(c3)CCC(=O)N4)ncc2C(F)(F)F)c1 (0.833333 µM) | morphology score | 0.138

Consider the record given below.
Data request: Write down morphology score measured for item CN(C)[C@@H](CCOc1cccc2ccccc12)c1ccccc1 [dapoxetine] (10 µM)
Data returned: 0.467

---

- System: Vero E6 infected with SARS-CoV-2
- Test description: inhibition of SARS-CoV-2 cytopathic effect; higher = more antiviral protection, active = above 15
- Test context: 1 nM; 48 h
inhibition of SARS-CoV-2 cytopathic effect reference
Note: unit % is implicit; provide only the numeric part.

Solved cases (6 shown):
Molecule | Target system | Unit of measure | Recorded result
CC12CC3CC(C)(C1)CC(N)(C3)C2 [memantine] | Vero E6 infected with SARS-CoV-2 | % | 0.45
CCCCCCCCCCC(C)(C)C(=O)Nc1c(OC)cc(OC)cc1OC | Vero E6 infected with SARS-CoV-2 | % | 0.52
CC(C)[C@@H]1CC[C@@H](C)C[C@H]1O [levomenthol] | Vero E6 infected with SARS-CoV-2 | % | 0.46
O=C(NNc1nc2cc(F)ccc2n2cccc12)c1cnccn1 | Vero E6 infected with SARS-CoV-2 | % | -2.31
CSCC[C@H](NC(=O)[C@H](CC(C)C)NC(=O)CNC(=O)[C@H](Cc1ccccc1)NC(=O)[C@H](Cc1ccccc1)NC(=O)[C@H](CCC(N)=O)NC(=O)[C@H](CCC(N)=O)NC(=O)[C@@H]1CCCN1C(=O)[C@H](CCCCN)NC(=O)[C@@H]1CCCN1C(=O)[C@@H](N)CCCN=C(N)N)C(N)=O [substance-P] | Vero E6 infected with SARS-CoV-2 | % | -5.5
Cn1cc(/C=C2\C(=O)Nc3cccnc32)c2ccccc21 | Vero E6 infected with SARS-CoV-2 | % | -2.16

Data request: Tell me inhibition of SARS-CoV-2 cytopathic effect reported for CC(C)N1CCN(c2ccc(OCC3COC(Cn4cncn4)(c4ccc(Cl)cc4Cl)O3)cc2)CC1 (stereo not drawn) [terconazole]
Data returned: 1.55

Data request: Give me measured inhibition of SARS-CoV-2 cytopathic effect, please, for this molecule: NCCC[C@H](N)CC(=O)N[C@H]1CNC(=O)[C@H]([C@H]2C[C@H](O)NC(N)=N2)NC(=O)/C(=C/NC(N)=O)NC(=O)[C@H](CO)NC(=O)[C@H](CO)NC1=O [viomycin]
Data returned: 2.35

Data request: Input N=C(N)NC(=N)Nc1ccccc1 [1-phenylbiguanide] , output reported inhibition of SARS-CoV-2 cytopathic effect.
Data returned: -1.07

Data request: Item CCC1=C[C@@H]2CN(C1)Cc1c([nH]c3ccccc13)[C@@](C(=O)OC)(c1cc3c(cc1OC)N(C)[C@H]1[C@@](O)(C(=O)OC)[C@H](OC(C)=O)[C@]4(CC)C=CCN5CC[C@]31[C@@H]54)C2 [vinorelbine] : provide inhibition of SARS-CoV-2 cytopathic effect
Data returned: -1.63

Data request: Quick one: give measured inhibition of SARS-CoV-2 cytopathic effect for O=C(O)[C@@H]1C[C@@H](C2CCCCC2)CN1C(=O)CP(=O)(O)CCCCc1ccccc1 [fosinoprilat]
Data returned: -0.23

Data request: Find the measured inhibition of SARS-CoV-2 cytopathic effect of COc1ccc2cccc(CCNC(C)=O)c2c1 [agomelatine] and report it.
Data returned: -0.83

Data request: State, in one line, measured inhibition of SARS-CoV-2 cytopathic effect of `CCCCCCCCc1ccc(-c2ccc(C(=O)O)cc2)cc1`
Data returned: -0.05

Data request: Indicate its recorded inhibition of SARS-CoV-2 cytopathic effect; the molecule in question is C[C@@H](O)[C@H]1C(=O)N2C(C(=O)O)=C(S[C@@H]3CN[C@H](C(=O)Nc4cccc(C(=O)O)c4)C3)[C@H](C)[C@H]12 [ertapenem]
Data returned: 0.22

Data request: Give the value of inhibition of SARS-CoV-2 cytopathic effect reported for the following: Nc1cc(Cl)c(N=C2NCCN2)c(Cl)c1 [apraclonidine]
Data returned: -2.77

---

// inhibition of SARS-CoV-2 cytopathic effect lookup, one value per entry
- Test system: Vero E6 infected with SARS-CoV-2
- Test description: inhibition of SARS-CoV-2 cytopathic effect; higher = more antiviral protection, active = above 15
- Test context: 833.33 nM; 48 h
Answer format: numeric, % implied, no suffix.

Compound | Recorded result
COc1cccc(/C=N/N=C/c2cccc(OC)c2)c1 | -0.34
C1COC(NC(C2CC2)C2CC2)=N1 | -3.95
CC(C)C[C@@H](C(=O)N[C@H](C(=O)OC1CCCC1)c1ccccc1)[C@H](O)C(=O)NO | 3.93

Data request: Identify measured inhibition of SARS-CoV-2 cytopathic effect associated with `COc1ccc(-c2ccc(=N)n(CCCC(=O)O)n2)cc1`
Data returned: -1.31

Data request: Please list inhibition of SARS-CoV-2 cytopathic effect recorded for the compound `CC(C)(C)c1ccc(-c2nc3c(N4CCN(Cc5ccc6nccnc6c5)CC4)cccc3[nH]2)cc1`
Data returned: -0.5

Data request: Give inhibition of SARS-CoV-2 cytopathic effect for CC(C)[N+](C)(CCC(C(N)=O)(c1ccccc1)c1ccccc1)C(C)C [isopropamide-iodide]
Data returned: 1.52

meta.source: the supplement of paper PMC13380429
